Test system: 596521-263-R-J1-PDC complex spheroid growth
Test: Anticancer human tumor 596521-263-R-J1-PDC patient-derived soft tissue sarcoma cell line growth inhibition [Asc]
Conditions: second compound 1 µM; first compound 0.1 µM; active compounds read low
Kindly state viability, T/C for each of the entries shown.
Give just the numeric value; % need not be written.

Tell me the measured viability, T/C of CCN1CCN(Cc2ccc(Nc3ncc(F)c(-c4cc(F)c5nc(C)n(C(C)C)c5c4)n3)nc2)CC1 + Cc1c(S(C)(=O)=O)c(-c2cc(F)cc(N3CCN(c4ccc(NS(=O)(=O)c5ccc(NC(CCN6CCC(C(=O)OCCCP(=O)(O)O)CC6)CSc6ccccc6)c(S(=O)(=O)C(F)(F)F)c5)cc4)CC3)c2)c(-c2ccc(Cl)cc2)n1C(C)C , please.
70.5

Again, but for C#Cc1c(F)ccc2cc(O)cc(-c3ncc4c(N5CC6CCC(C5)N6)nc(OCC56CCCN5CC(F)C6)nc4c3F)c12 (configuration not stated) + CNC(C)C(=O)NC1CN(S(=O)(=O)c2cccc(S(=O)(=O)N3CCC4CCC(C(=O)NC(c5ccccc5)c5ccccc5)N4C(=O)C(NC(=O)C(C)NC)C3)c2)CCC2CCC(C(=O)NC(c3ccccc3)c3ccccc3)N2C1=O
74.5

* * *

System: 596521-263-R-J1-PDC complex spheroid growth
Experiment: Anticancer human tumor 596521-263-R-J1-PDC cell line growth inhibition [Asc];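 note: spheroids exposed to compounds for 7 days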
Conditions: second compound 0.316 µM; first compound 0.00949 µM; active compounds read low
QUANTITY_NAME: viability, T/C (%)
Give just the numeric value; % need not be written.

Form field - read-out: viability, T/C; system: 596521-263-R-J1-PDC complex spheroid growth; submitted item: NC(=O)C(=Cn1cnc(-c2cc(C(F)(F)F)cc(C(F)(F)F)c2)n1)c1cncnc1 + Cc1c(S(C)(=O)=O)c(-c2cc(F)cc(N3CCN(c4ccc(NS(=O)(=O)c5ccc(NC(CCN6CCC(C(=O)OCCCP(=O)(O)O)CC6)CSc6ccccc6)c(S(=O)(=O)C(F)(F)F)c5)cc4)CC3)c2)c(-c2ccc(Cl)cc2)n1C(C)C
71.9

Again, but for CCN1C(C(=O)NC23CCC(C(=O)O)(CC2)CC3)C(c2cccc(Cl)c2F)C2(C(=O)Nc3cc(Cl)ccc32)C12CCCCC2 (stereo not given) + Cc1c(S(C)(=O)=O)c(-c2cc(F)cc(N3CCN(c4ccc(NS(=O)(=O)c5ccc(NC(CCN6CCC(C(=O)OCCCP(=O)(O)O)CC6)CSc6ccccc6)c(S(=O)(=O)C(F)(F)F)c5)cc4)CC3)c2)c(-c2ccc(Cl)cc2)n1C(C)C
98.7

Again, but for Cc1nc(N2CCC3(CC2)COC(C)C3N)c(CO)nc1Sc1ccnc(N)c1Cl (stereo not given) + Cc1c(S(C)(=O)=O)c(-c2cc(F)cc(N3CCN(c4ccc(NS(=O)(=O)c5ccc(NC(CCN6CCC(C(=O)OCCCP(=O)(O)O)CC6)CSc6ccccc6)c(S(=O)(=O)C(F)(F)F)c5)cc4)CC3)c2)c(-c2ccc(Cl)cc2)n1C(C)C
86.4

Again, but for Cc1nc(N2CCC3(CC2)COC(C)C3N)c(CO)nc1Sc1ccnc(N)c1Cl (stereo not given) + CNC(C)C(=O)NC1CN(S(=O)(=O)c2cccc(S(=O)(=O)N3CCC4CCC(C(=O)NC(c5ccccc5)c5ccccc5)N4C(=O)C(NC(=O)C(C)NC)C3)c2)CCC2CCC(C(=O)NC(c3ccccc3)c3ccccc3)N2C1=O
79.2

Again, but for NC(=O)C(=Cn1cnc(-c2cc(C(F)(F)F)cc(C(F)(F)F)c2)n1)c1cncnc1 + CNC(C)C(=O)NC1CN(S(=O)(=O)c2cccc(S(=O)(=O)N3CCC4CCC(C(=O)NC(c5ccccc5)c5ccccc5)N4C(=O)C(NC(=O)C(C)NC)C3)c2)CCC2CCC(C(=O)NC(c3ccccc3)c3ccccc3)N2C1=O
71.3

* * *

Kindly state viability, T/C for each of the entries shown.
Tested on: 596521-263-R-J1-PDC complex spheroid growth
Assay: Anticancer human tumor 596521-263-R-J1-PDC cell line growth inhibition [Asc];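 note: spheroids exposed to compounds for 7 days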
Conditions: second compound 0.1 µM; first compound 0.0949 µM; active compounds read low

Tell me the measured viability, T/C of CCN1C(C(=O)NC23CCC(C(=O)O)(CC2)CC3)C(c2cccc(Cl)c2F)C2(C(=O)Nc3cc(Cl)ccc32)C12CCCCC2 (stereo not drawn) + Cc1c(S(C)(=O)=O)c(-c2cc(F)cc(N3CCN(c4ccc(NS(=O)(=O)c5ccc(NC(CCN6CCC(C(=O)OCCCP(=O)(O)O)CC6)CSc6ccccc6)c(S(=O)(=O)C(F)(F)F)c5)cc4)CC3)c2)c(-c2ccc(Cl)cc2)n1C(C)C , please.
95.9%

Again, but for NC(=O)C(=Cn1cnc(-c2cc(C(F)(F)F)cc(C(F)(F)F)c2)n1)c1cncnc1 + CNC(C)C(=O)NC1CN(S(=O)(=O)c2cccc(S(=O)(=O)N3CCC4CCC(C(=O)NC(c5ccccc5)c5ccccc5)N4C(=O)C(NC(=O)C(C)NC)C3)c2)CCC2CCC(C(=O)NC(c3ccccc3)c3ccccc3)N2C1=O
14.6%

Again, but for NC(=O)C(=Cn1cnc(-c2cc(C(F)(F)F)cc(C(F)(F)F)c2)n1)c1cncnc1 + Cc1c(S(C)(=O)=O)c(-c2cc(F)cc(N3CCN(c4ccc(NS(=O)(=O)c5ccc(NC(CCN6CCC(C(=O)OCCCP(=O)(O)O)CC6)CSc6ccccc6)c(S(=O)(=O)C(F)(F)F)c5)cc4)CC3)c2)c(-c2ccc(Cl)cc2)n1C(C)C
6.86%

* * *

Tested on: 596521-263-R-J1-PDC complex spheroid growth
Assay: Anticancer human tumor 596521-263-R-J1-PDC cell line growth inhibition [Asc];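 note: spheroids exposed to compounds for 7 days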
Settings: second compound 0.316 µM; first compound 0.00316 µM; active compounds read low
Kindly state viability, T/C for each of the entries shown.
Give just the numeric value; % need not be written.

Form field - read-out: viability, T/C; system: 596521-263-R-J1-PDC complex spheroid growth; submitted item: CNC(C)C(=O)NC1CN(S(=O)(=O)c2cccc(S(=O)(=O)N3CCC4CCC(C(=O)NC(c5ccccc5)c5ccccc5)N4C(=O)C(NC(=O)C(C)NC)C3)c2)CCC2CCC(C(=O)NC(c3ccccc3)c3ccccc3)N2C1=O (stereo not drawn) + Cc1c(S(C)(=O)=O)c(-c2cc(F)cc(N3CCN(c4ccc(NS(=O)(=O)c5ccc(NC(CCN6CCC(C(=O)OCCCP(=O)(O)O)CC6)CSc6ccccc6)c(S(=O)(=O)C(F)(F)F)c5)cc4)CC3)c2)c(-c2ccc(Cl)cc2)n1C(C)C
91.8

Again, but for O=C(c1ccc(F)c(F)c1Nc1ccc(I)cc1F)N1CC(O)([C@@H]2CCCCN2)C1 + Cc1c(S(C)(=O)=O)c(-c2cc(F)cc(N3CCN(c4ccc(NS(=O)(=O)c5ccc(NC(CCN6CCC(C(=O)OCCCP(=O)(O)O)CC6)CSc6ccccc6)c(S(=O)(=O)C(F)(F)F)c5)cc4)CC3)c2)c(-c2ccc(Cl)cc2)n1C(C)C
87.1

Again, but for O=C(c1ccc(F)c(F)c1Nc1ccc(I)cc1F)N1CC(O)([C@@H]2CCCCN2)C1 + CNC(C)C(=O)NC1CN(S(=O)(=O)c2cccc(S(=O)(=O)N3CCC4CCC(C(=O)NC(c5ccccc5)c5ccccc5)N4C(=O)C(NC(=O)C(C)NC)C3)c2)CCC2CCC(C(=O)NC(c3ccccc3)c3ccccc3)N2C1=O
78.9

Again, but for CCN1CCN(Cc2ccc(Nc3ncc(F)c(-c4cc(F)c5nc(C)n(C(C)C)c5c4)n3)nc2)CC1 + CNC(C)C(=O)NC1CN(S(=O)(=O)c2cccc(S(=O)(=O)N3CCC4CCC(C(=O)NC(c5ccccc5)c5ccccc5)N4C(=O)C(NC(=O)C(C)NC)C3)c2)CCC2CCC(C(=O)NC(c3ccccc3)c3ccccc3)N2C1=O
75.4

Again, but for Cn1ncnc1[C@H]1c2n[nH]c(=O)c3cc(F)cc(c23)N[C@@H]1c1ccc(F)cc1 + Cc1c(S(C)(=O)=O)c(-c2cc(F)cc(N3CCN(c4ccc(NS(=O)(=O)c5ccc(NC(CCN6CCC(C(=O)OCCCP(=O)(O)O)CC6)CSc6ccccc6)c(S(=O)(=O)C(F)(F)F)c5)cc4)CC3)c2)c(-c2ccc(Cl)cc2)n1C(C)C
77.7

Again, but for NC1CCC(NC2CC2c2ccccc2)CC1 (stereo not drawn) + Cc1c(S(C)(=O)=O)c(-c2cc(F)cc(N3CCN(c4ccc(NS(=O)(=O)c5ccc(NC(CCN6CCC(C(=O)OCCCP(=O)(O)O)CC6)CSc6ccccc6)c(S(=O)(=O)C(F)(F)F)c5)cc4)CC3)c2)c(-c2ccc(Cl)cc2)n1C(C)C
75.9

Again, but for COc1c(OCCCN2CCOCC2)ccc2c3n(c(=NC(=O)c4cnc(N)nc4)nc12)CCN3 + Cc1c(S(C)(=O)=O)c(-c2cc(F)cc(N3CCN(c4ccc(NS(=O)(=O)c5ccc(NC(CCN6CCC(C(=O)OCCCP(=O)(O)O)CC6)CSc6ccccc6)c(S(=O)(=O)C(F)(F)F)c5)cc4)CC3)c2)c(-c2ccc(Cl)cc2)n1C(C)C
85.6

Again, but for Cn1ncnc1[C@H]1c2n[nH]c(=O)c3cc(F)cc(c23)N[C@@H]1c1ccc(F)cc1 + CNC(C)C(=O)NC1CN(S(=O)(=O)c2cccc(S(=O)(=O)N3CCC4CCC(C(=O)NC(c5ccccc5)c5ccccc5)N4C(=O)C(NC(=O)C(C)NC)C3)c2)CCC2CCC(C(=O)NC(c3ccccc3)c3ccccc3)N2C1=O
79.3
